system.tested: Protein kinase C gamma type (Homo sapiens) (UniProt P05129)
protocol.summary: Inhibition of PKCgamma at 10 uM by HTRF assay relative to control
Reported inhibition by item:

{"smiles.string": "CN(CCc1ccccn1)C(=O)c1cccc(Nc2nccc(Nc3ccc4ncsc4c3)n2)c1", "inhibition": "27%"}
{"smiles.string": "Cc1cccc(Nc2nccc(Nc3cccc(C(=O)N(C)CCc4ccccn4)c3)n2)c1", "inhibition": "14%"}
{"smiles.string": "Clc1ccc2sc(CN3CCN(c4ncnc5c4CN(Cc4ccccc4)CC5)CC3)cc2c1", "inhibition": "2%"}
{"smiles.string": "COC[C@@H]1CCCN1C(=O)[C@@H]1CCCN1c1nccc(Nc2ccccc2)n1", "inhibition": "0%"}
{"smiles.string": "Cc1cccc(Oc2ccnc(N3CCC[C@H]3C(=O)NCc3cccnc3)n2)c1", "inhibition": "6%"}

* * *

protocol.summary: Inhibition of PKA at 10 uM by HTRF assay relative to control
measured.quantity: inhibition (%)

{"compound": "O=C(CN1CCN(c2ncnc3c2CN(Cc2ccccc2)CC3)CC1)Nc1cc(F)ccc1F", "reported.result": 0}
{"compound": "Nc1nc(Nc2ccc(C(=O)NCCc3ccncc3)cc2)cc(N2CCOCC2)n1", "reported.result": 3}
{"compound": "Cc1cccc(N(C)c2cc(Nc3cccc(C(=O)N4CCCC5CCCCC54)c3)ncn2)c1 (stereo not given)", "reported.result": 0}
{"compound": "Cc1cccc(N(C)c2cc(Nc3cccc(C(=O)N(C)CCc4ccccn4)c3)ncn2)c1", "reported.result": 0}
{"compound": "Nc1nc(N2CCOCC2)cc(N2CCC(C(=O)NCCc3ccc(O)cc3)CC2)n1", "reported.result": 0}

* * *

system.tested: Fibroblast growth factor receptor 1 (Homo sapiens)
protocol.summary: Inhibition of FGFR1 at 10 uM by HTRF assay relative to control

{"smiles.string": "Cc1cccc(Nc2ncnc3c2CN(C(=O)c2ccc(N(C)C)c4ccccc24)CC3)c1", "system.tested": "Fibroblast growth factor receptor 1 (Homo sapiens)", "unit.tag": "%", "inhibition": 0}
{"smiles.string": "Cc1cccc(N(C)c2cc(Nc3cccc(C(=O)N(C)CCc4ccccn4)c3)ncn2)c1", "system.tested": "Fibroblast growth factor receptor 1 (Homo sapiens)", "unit.tag": "%", "inhibition": 30}
{"smiles.string": "O=C(NCCc1ccc(O)cc1)c1cccc(Nc2nccc(Nc3ccc4ncsc4c3)n2)c1", "system.tested": "Fibroblast growth factor receptor 1 (Homo sapiens)", "unit.tag": "%", "inhibition": 52}
{"smiles.string": "COc1cccc(Nc2cc(N3CCC[C@H]3C(=O)NCCN3CCCCC3)nc(N)n2)c1", "system.tested": "Fibroblast growth factor receptor 1 (Homo sapiens)", "unit.tag": "%", "inhibition": 0}
{"smiles.string": "O=C(c1nc(SCc2ccc(Cl)cc2)n2ccccc12)N1CCN(c2ncnc3c2CN(Cc2ccccc2)CC3)CC1", "system.tested": "Fibroblast growth factor receptor 1 (Homo sapiens)", "unit.tag": "%", "inhibition": 0}

* * *

protocol.summary: Inhibition of IRK at 10 uM by HTRF assay relative to control

{"smiles.string": "CC(=O)N1CCN(C(=O)c2cccc(Nc3cc(N(C)c4cccc(C)c4)ncn3)c2)CC1", "inhibition (%)": 0}
{"smiles.string": "Clc1ccc2sc(CN3CCN(c4ncnc5c4CN(Cc4ccccc4)CC5)CC3)cc2c1", "inhibition (%)": 7}
{"smiles.string": "Cc1cccc(Nc2ncnc3c2CN(C(=O)c2ccc(N(C)C)c4ccccc24)CC3)c1", "inhibition (%)": 0}
{"smiles.string": "O=C(NCc1cccnc1)c1cccc(-c2ccc(Nc3ccc4ncsc4c3)nn2)c1", "inhibition (%)": 73}
{"smiles.string": "CN(C)c1ccc(C(=O)N2CCN(c3ncnc4c3CN(Cc3ccccc3)CC4)CC2)c2ccccc12", "inhibition (%)": 0}
{"smiles.string": "Cc1cc(C(=O)N2CCN(c3ncnc4c3CN(Cc3ccccc3)CC4)CC2)c(C)n1C", "inhibition (%)": 0}
{"smiles.string": "Cc1cccc(N(C)c2cc(Nc3cccc(C(=O)NCc4ccc(N(C)C)cc4)c3)ncn2)c1", "inhibition (%)": 0}
{"smiles.string": "Cc1cccc(Oc2ccnc(N3CCN(CC(=O)Nc4cccc5c4CCCC5)CC3)n2)c1", "inhibition (%)": 0}
{"smiles.string": "O=C(NC1Cc2ccccc2C1)c1cccc(Nc2ccnc(N3CCN(c4ccccc4)CC3)n2)c1", "inhibition (%)": 0}

* * *

system.tested: Focal adhesion kinase 1 (Homo sapiens)
protocol.summary: Inhibition of FAK at 10 uM by HTRF assay relative to control
Reported inhibition by item:

{"smiles.string": "O=C(NC1Cc2ccccc2C1)c1cccc(Nc2ccnc(N3CCN(c4ccccc4)CC3)n2)c1", "inhibition (%)": 0}
{"smiles.string": "O=C(C1CCN(c2nccc(Nc3ccccc3)n2)CC1)N1CC[C@@H](O)C1", "inhibition (%)": 0}
{"smiles.string": "CN(C)c1ccc(C(=O)N2CCN(c3ncnc4c3CN(Cc3ccccc3)CC4)CC2)c2ccccc12", "inhibition (%)": 0}
{"smiles.string": "Cc1cccc(N(C)c2cc(N3CCN(C(=O)Cc4c[nH]c5ccccc45)CC3)ncn2)c1", "inhibition (%)": 5}
{"smiles.string": "Cc1cccc(N(C)c2cc(Nc3cccc(C(=O)NCc4ccncc4)c3)ncn2)c1", "inhibition (%)": 20}
{"smiles.string": "COc1ccc(NC(=O)Cc2ccc(Nc3cc(N(C)c4cccc(C)c4)ncn3)cc2)cn1", "inhibition (%)": 5}
{"smiles.string": "Cc1cccc(Nc2nccc3c2CN(C(=O)c2cc(C)n(C)c2C)CC3)c1", "inhibition (%)": 1}
{"smiles.string": "Nc1nc(N2CCOCC2)cc(N2CCC(C(=O)NCCc3ccc(O)cc3)CC2)n1", "inhibition (%)": 3}
{"smiles.string": "Cc1cccc(N(C)c2cc(Nc3cccc(C(=O)NCc4ccc(N(C)C)cc4)c3)ncn2)c1", "inhibition (%)": 9}

* * *

system.tested: Inhibitor of nuclear factor kappa-B kinase subunit beta (Homo sapiens) (UniProt O14920)
Sequence (whole entry): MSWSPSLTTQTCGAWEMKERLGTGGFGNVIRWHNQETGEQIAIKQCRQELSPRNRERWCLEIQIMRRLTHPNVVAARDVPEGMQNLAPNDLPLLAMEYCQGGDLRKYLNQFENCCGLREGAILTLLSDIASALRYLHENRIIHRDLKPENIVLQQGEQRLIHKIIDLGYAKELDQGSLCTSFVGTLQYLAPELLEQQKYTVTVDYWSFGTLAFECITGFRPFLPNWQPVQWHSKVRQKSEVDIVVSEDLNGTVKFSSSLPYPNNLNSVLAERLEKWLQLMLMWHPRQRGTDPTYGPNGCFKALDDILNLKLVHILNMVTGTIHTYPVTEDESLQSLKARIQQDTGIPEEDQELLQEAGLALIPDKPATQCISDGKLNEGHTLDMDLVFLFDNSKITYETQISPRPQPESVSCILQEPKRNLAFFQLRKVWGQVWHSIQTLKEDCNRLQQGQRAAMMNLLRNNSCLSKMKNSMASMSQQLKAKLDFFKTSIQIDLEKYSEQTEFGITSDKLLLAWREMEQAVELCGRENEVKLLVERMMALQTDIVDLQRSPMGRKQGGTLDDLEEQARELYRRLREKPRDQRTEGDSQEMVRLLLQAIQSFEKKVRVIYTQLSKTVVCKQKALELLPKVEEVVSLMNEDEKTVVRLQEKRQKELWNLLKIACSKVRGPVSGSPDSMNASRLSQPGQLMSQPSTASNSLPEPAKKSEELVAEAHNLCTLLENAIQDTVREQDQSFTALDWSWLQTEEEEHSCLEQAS
protocol.summary: Inhibition of IKK-beta at 10 uM by HTRF assay relative to control
measured.quantity: inhibition (%)

{"smiles.string": "Clc1ccc2sc(CN3CCN(c4ncnc5c4CN(Cc4ccccc4)CC5)CC3)cc2c1", "reported.result": 10}
{"smiles.string": "O=C(COc1ccccc1)N1CCN(c2nccc(Nc3ccc4ncsc4c3)n2)CC1", "reported.result": 10}
{"smiles.string": "Cc1cccc(Oc2ccnc(N3CCC[C@H]3C(=O)NCc3cccnc3)n2)c1", "reported.result": 0}
{"smiles.string": "CC(=O)N1CCN(C(=O)c2cccc(Nc3cc(N(C)c4cccc(C)c4)ncn3)c2)CC1", "reported.result": 1}
{"smiles.string": "CN(C)CC(C)(C)CNC(=O)c1cccc(Nc2nccc(Nc3ccc4ncsc4c3)n2)c1", "reported.result": 52}
{"smiles.string": "COc1cccc(Nc2cc(Nc3cccc(C(=O)NCCCn4ccnc4)c3)nc(N)n2)c1", "reported.result": 4}
{"smiles.string": "O=C(c1nc(SCc2ccc(Cl)cc2)n2ccccc12)N1CCN(c2ncnc3c2CN(Cc2ccccc2)CC3)CC1", "reported.result": 2}
{"smiles.string": "CN(C)c1ccc(C(=O)N2CCN(c3ncnc4c3CN(Cc3ccccc3)CC4)CC2)c2ccccc12", "reported.result": 1}
{"smiles.string": "COC[C@@H]1CCCN1C(=O)[C@@H]1CCCN1c1cc(Nc2cccc(OC)c2)nc(N)n1", "reported.result": 9}
